Source of measurements: paper PMC10761851

# Substrate: O=C1CCC/C1=C\c1ccccc1
# assay_method_text: purified protein
# Assay type: biochemical, Bacillus subtilis
# run_conditions: 1.0 mM NADPH, 10 μM enzyme, PBS 100 mM, pH 7.5, 30 °C
test_readout: Km (µM)

protein: YqjM (Bacillus subtilis subsp. subtilis str. 168; C26G/I69Y/Y169F) (protein, ene-reductase, FMN enzyme) ARKLFTPITIKDMTLKNRIVMSPMGMYSSHEKDGKLTPFHMAHYISRAIGQVGLIIVEASAVNPQGRYTDQDLGIWSDEHIEGFAKLTEQVKEQGSKIGIQLAHAGRKAELEGDIFAPSAIAFDEQSATPVEMSAEKVKETVQEFKQAAARAKEAGFDVIEIHAAHGFLIHEFLSPLSNHRTDEYGGSPENRYRFLREIIDEVKQVWDGPLFVRVSASDYTDKGLDIADHIGFAKWMKEQGVDLIDCSSGALVHADINVFPGYQVSFAEKIREQADMATGAVGMITDGSMAEEILQNGRADLIFIGRELLRDPFFARTAAKQLNTEIPAPVQYERGW
unit_tag: µM
recorded_result: 1690
